- System: HeLa Kyoto
- assay procedure: thermal stability score vs G1/S (z-score of summed log2 fold changes over temperatures); higher = more thermally stable than in G1/S
- condition description: cell cycle stage: mitosis
quantity: thermal stability score
Reply: number alone, nothing else.

>>> endpoint_result("MAAETRNVAGAEAPPPQKRYYRQRAHSNPMADHTLRYPVKPEEMDWSELYPEFFAPLTQNQSHDDPKDKKEKRAQAQVEFADIGCGYGGLLVELSPLFPDTLILGLEIRVKVSDYVQDRIRALRAAPAGGFQNIACLRSNAMKHLPNFFYKGQLTKMFFLFPDPHFKRTKHKWRIISPTLLAEYAYVLRVGGLVYTITDVLELHDWMCTHFEEHPLFERVPLEDLSEDPVVGHLGTSTEEGKKVLRNGGKNFPAIFRRIQDPVLQAVTSQTSLPGH [METTL1]")
2.85

Exercise: Bench note: what thermal stability score did MADKEKKKKESILDLSKYIDKTIRVKFQGGREASGILKGFDPLLNLVLDGTIEYMRDPDDQYKLTEDTRQLGLVVCRGTSVVLICPQDGMEAIPNPFIQQQDA [LSM7] show?
Solution: -2.73

Exercise: Bench note: what thermal stability score did MDGPVAEHAKQEPFHVVTPLLESWALSQVAGMPVFLKCENVQPSGSFKIRGIGHFCQEMAKKGCRHLVCSSGGNAGIAAAYAARKLGIPATIVLPESTSLQVVQRLQGEGAEVQLTGKVWDEANLRAQELAKRDGWENVPPFDHPLIWKGHASLVQELKAVLRTPPGALVLAVGGGGLLAGVVAGLLEVGWQHVPIIAMETHGAHCFNAAITAGKLVTLPDITSVAKSLGAKTVAARALECMQVCKIHSEVVEDTEAVSAVQQLLDDERMLVEPACGAALAAIYSGLLRRLQAEGCLPPSLTSVVVIVCGGNNINSRELQALKTHLGQV [SDSL] show?
Solution: -2.65

Exercise: Bench note: what thermal stability score did MASLDRVKVLVLGDSGVGKSSLVHLLCQNQVLGNPSWTVGCSVDVRVHDYKEGTPEEKTYYIELWDVGGSVGSASSVKSTRAVFYNSVNGIIFVHDLTNKKSSQNLRRWSLEALNRDLVPTGVLVTNGDYDQEQFADNQIPLLVIGTKLDQIHETKRHEVLTRTAFLAEDFNPEEINLDCTNPRYLAAGSSNAVKLSRFFDKVIEKRYFLREGNQIPGFPDRKRFGAGTLKSLHYD [RABL3] show?
Solution: -1.09

Exercise: Bench note: what thermal stability score did MSGELPPNINIKEPRWDQSTFIGRANHFFTVTDPRNILLTNEQLESARKIVHDYRQGIVPPGLTENELWRAKYIYDSAFHPDTGEKMILIGRMSAQVPMNMTITGCMMTFYRTTPAVLFWQWINQSFNAVVNYTNRSGDAPLTVNELGTAYVSATTGAVATALGLNALTKHVSPLIGRFVPFAAVAAANCINIPLMRQRELKVGIPVTDENGNRLGESANAAKQAITQVVVSRILMAAPGMAIPPFIMNTLEKKAFLKRFPWMSAPIQVGLVGFCLVFATPLCCALFPQKSSMSVTSLEAELQAKIQESHPELRRVYFNKGL [SFXN1] show?
Solution: -0.959

Exercise: Bench note: what thermal stability score did MSFLLPKLTSKKEVDQAIKSTAEKVLVLRFGRDEDPVCLQLDDILSKTSSDLSKMAAIYLVDVDQTAVYTQYFDISYIPSTVFFFNGQHMKVDYGSPDHTKFVGSFKTKQDFIDLIEVIYRGAMRGKLIVQSPIDPKNIPKYDLLYQDI [TXNL4B] show?
Solution: 1.15

====

Items are presented alongside their recorded melting temperature.
- Test system: HeLa Kyoto
- assay procedure: melting temperature (median over replicates), in situ; higher = more thermally stable
- condition description: cell cycle stage: G1/S
A number alone suffices; assume °C.

>>> endpoint_result("MDQEPVGGVERGEAVAASGAAAAAAFGESAGQMSNERGFENVELGVIGKKKKVPRRVIHFVSGETMEEYSTDEDEVDGLEKKDVLPTVDPTKLTWGPYLWFYMLRAATSTLSVCDFLGEKIASVLGISTPKYQYAIDEYYRMKKEEEEEEEENRMSEEAEKQYQQNKLQTDSIVQTDQPETVISSSFVNVNFEMEGDSEVIMESKQNPVSVPP [FAM177A1]")
54.5
>>> endpoint_result("MELGSCLEGGREAAEEEGEPEVKKRRLLCVEFASVASCDAAVAQCFLAENDWEMERALNSYFEPPVEESALERRPETISEPKTYVDLTNEETTDSTTSKISPSEDTQQENGSMFSLITWNIDGLDLNNLSERARGVCSYLALYSPDVIFLQEVIPPYYSYLKKRSSNYEIITGHEEGYFTAIMLKKSRVKLKSQEIIPFPSTKMMRNLLCVHVNVSGNELCLMTSHLESTRGHAAERMNQLKMVLKKMQEAPESATVIFAGDTNLRDREVTRCGGLPNNIVDVWEFLGKPKHCQYTWDTQMNSNLGITAACKLRFDRIFFRAAAEEGHIIPRSLDLLGLEKLDCGRFPSDHWGLLCNLDIIL [TDP2]")
49.7
>>> endpoint_result("MGHRFLRGLLTLLLPPPPLYTRHRMLGPESVPPPKRSRSKLMAPPRIGTHNGTFHCDEALACALLRLLPEYRDAEIVRTRDPEKLASCDIVVDVGGEYDPRRHRYDHHQRSFTETMSSLSPGKPWQTKLSSAGLIYLHFGHKLLAQLLGTSEEDSMVGTLYDKMYENFVEEVDAVDNGISQWAEGEPRYALTTTLSARVARLNPTWNHPDQDTEAGFKRAMDLVQEEFLQRLDFYQHSWLPARALVEEALAQRFQVDPSGEIVELAKGACPWKEHLYHLESGLSPPVAIFFVIYTDQAGQWRIQCVPKEPHSFQSRLPLPEPWRGLRDEALDQVSGIPGCIFVHASGFIGGHRTREGALSMARATLAQRSYLPQIS [C12ORF10]")
53.8

Exercise: Bench note: what melting temperature did MELSAVGERVFAAEALLKRRIRKGRMEYLVKWKGWSQKYSTWEPEENILDARLLAAFEEREREMELYGPKKRGPKPKTFLLKAQAKAKAKTYEFRSDSARGIRIPYPGRSPQDLASTSRAREGLRNMGLSPPASSTSTSSTCRAEAPRDRDRDRDRDRERDRERERERERERERERERERGTSRVDDKPSSPGDSSKKRGPKPRKELPDPSQRPLGEPSAGLGEYLKGRKLDDTPSGAGKFPAGHSVIQLARRQDSDLVQCGVTSPSSAEATGKLAVDTFPARVIKHRAAFLEAKGQGALDPNGTRVRHGSGPPSSGGGLYRDMGAQGGRPSLIARIPVARILGDPEEESWSPSLTNLEKVVVTDVTSNFLTVTIKESNTDQGFFKEKR [CBX8] show?
Solution: 46.1

Exercise: Bench note: what melting temperature did MERKISRIHLVSEPSITHFLQVSWEKTLESGFVITLTDGHSAWTGTVSESEISQEADDMAMEKGKYVGELRKALLSGAGPADVYTFNFSKESCYFFFEKNLKDVSFRLGSFNLEKVENPAEVIRELICYCLDTIAENQAKNEHLQKENERLLRDWNDVQGRFEKCVSAKEALETDLYKRFILVLNEKKTKIRSLHNKLLNAAQEREKDIKQEGETAICSEMTADRDPVYDESTDEESENQTDLSGLASAAVSKDDSIISSLDVTDIAPSRKRRQRMQRNLGTEPKMAPQENQLQEKENSRPDSSLPETSKKEHISAENMSLETLRNSSPEDLFDEI [XRCC4] show?
Solution: 55.2

====

Items are presented alongside their recorded thermal stability score.
- Tested on: HeLa Kyoto
- assay procedure: thermal stability score vs G1/S (z-score of summed log2 fold changes over temperatures); higher = more thermally stable than in G1/S
- condition description: cell cycle stage: mitosis
Reply: number alone, nothing else.

Worked examples, 4 substances total:
>>> endpoint_result("MGCDGGTIPKRHELVKGPKKVEKVDKDAELVAQWNYCTLSQEILRRPIVACELGRLYNKDAVIEFLLDKSAEKALGKAASHIKSIKNVTELKLSDNPAWEGDKGNTKGDKHDDLQRARFICPVVGLEMNGRHRFCFLRCCGCVFSERALKEIKAEVCHTCGAAFQEDDVIMLNGTKEDVDVLKTRMEERRLRAKLEKKTKKPKAAESVSKPDVSEEAPGPSKVKTGKPEEASLDSREKKTNLAPKSTAMNESSSGKAGKPPCGATKRSIADSEESEAYKSLFTTHSSAKRSKEESAHWVTHTSYCF [RTFDC1]")
2.61
>>> endpoint_result("MFLVGLTGGIASGKSSVIQVFQQLGCAVIDVDVMARHVVQPGYPAHRRIVEVFGTEVLLENGDINRKVLGDLIFNQPDRRQLLNAITHPEIRKEMMKETFKYFLRGYRYVILDIPLLFETKKLLKYMKHTVVVYCDRDTQLARLMRRNSLNRKDAEARINAQLPLTDKARMARHVLDNSGEWSVTKRQVILLHTELERSLEYLPLRFGVLTGLAAIASLLYLLTHYLLPYA [DCAKD]")
0.0944
>>> endpoint_result("MFVELNNLLNTTPDRAEQGKLTLLCDAKTDGSFLVHHFLSFYLKANCKVCFVALIQSFSHYSIVGQKLGVSLTMARERGQLVFLEGLKSAVDVVFQAQKEPHPLQFLREANAGNLKPLFEFVREALKPVDSGEARWTYPVLLVDDLSVLLSLGMGAVAVLDFIHYCRATVCWELKGNMVVLVHDSGDAEDEENDILLNGLSHQSHLILRAEGLATGFCRDVHGQLRILWRRPSQPAVHRDQSFTYQYKIQDKSVSFFAKGMSPAVL [ELP6]")
-1.3
>>> endpoint_result("PIKFYVE")
0.726

Below: the item to evaluate.
Exercise: Bench note: what thermal stability score did CAMSAP1 show?
Solution: 0.324
